Tested on: warm season plant species
Experiment: B2 Post-emergence efficacy Test 2, warm season plant species
Format: in vivo
Conditions: Abutilon theophrasti, 15 g/Ha, 15 days after application, 0-100 scale, 0=no damage, 100=total kill

{"columns": ["compound smiles", "Herbicidal activity, ABUTH"],
 "data": [
  ["Cc1nn(C)c(=O)c(-c2c(F)ccc(Cl)c2CCc2ccc(Cl)cc2)c1OC(=O)C(C)C", 70],
  ["Cc1nn(C)c(=O)c(-c2c(F)ccc(Cl)c2CCc2ccc(F)cc2)c1O", 60],
  ["Cc1nn(C)c(=O)c(-c2c(F)ccc(Cl)c2CCc2ccc(C#N)cc2)c1O", 90],
  ["Cc1nn(C)c(=O)c(-c2c(F)ccc(Cl)c2CCc2ccc(F)cc2)c1OC(=O)C(C)C", 80],
  ["Cc1nn(C)c(=O)c(-c2c(F)ccc(Cl)c2CCc2ccccc2C(F)(F)F)c1O", 20]
]}
